Tested on: Rattus norvegicus
Assay: Cytoprotective activity in rats when administered 50 mg/kg perorally (Hydrochloric acid as necrotic agent)
Type: functional
Conditions: route oral
Values of inhibition in vivo at 50 mg/kg greater than or equal to 50% map to true (1); values below map to false (0).

# compound, group
rows = [
    ("Cc1nc2ccccn2c1C(C)SCCNc1n[s+]([O-])nc1N (stereo not given)", "false (0)"),
]

Lookup: // inclusive: inhibition in vivo at 50 mg/kg at least 50%? input: Cc1nc2c(OCc3ccccc3)cccn2c1C(C)SCCNc1n[s+]([O-])nc1N (stereo not given)
Found: true (1)

Lookup: // inclusive: inhibition in vivo at 50 mg/kg at least 50%? input: C/N=C(/NC#N)NCCSCc1c(C)nc2ccccn12
Found: true (1)

Lookup: // inclusive: inhibition in vivo at 50 mg/kg at least 50%? input: Cc1nc2ccccn2c1CSCCNc1nsnc1N
Found: false (0)
